- Assay target: Mushroom tyrosinase (Agaricus bisporus, UniProt O42713+Q00024+C7FF04+C7FF05)
- Assay notes: Inhibition of mushroom tyrosinase using L-DOPA as substrate assessed as reduction in diphenolase activity
- Assay type: protein assay
Consider the following molecules and their measured IC50 readings.

Sample answers from the record:
[[record]]
molecule = "O=C(OCc1cc(=O)c(O)co1)C(Cc1ccccc1)NCc1ccc(Cl)cc1Cl (configuration not stated)"
reported = "10.35 µM"

[[record]]
molecule = "O=C(OCc1ccc(F)cc1)C(Cc1ccccc1)NCc1ccccc1Cl (configuration not stated)"
reported = "18.2 µM"

[[record]]
molecule = "O=C(OCc1ccc([N+](=O)[O-])cc1)C(Cc1ccccc1)NCc1ccccc1Cl (configuration not stated)"
reported = "16.99 µM"


Check the records and state IC50 for O=C(O)C(Cc1ccccc1)NCc1ccc([N+](=O)[O-])cc1 (configuration not stated)
42.4 µM

Check the records and state IC50 for O=C(O)C(Cc1ccccc1)NCc1ccccc1Cl (configuration not stated)
> 100 µM

----------
- Assay target: Mushroom tyrosinase (Agaricus bisporus, UniProt O42713+Q00024+C7FF04+C7FF05)
- Assay notes: Inhibition of mushroom tyrosinase using L-DOPA as substrate assessed as reduction in diphenolase activity
- Format: protein assay
Measurement name: IC50 (µM)
All answers are understood in µM, so give the number only.

[[record]]
molecule = "O=C(O)C(Cc1ccccc1)NCc1ccc(Br)cc1 (stereo not given)"
assay_target = "Mushroom tyrosinase (Agaricus bisporus, UniProt O42713+Q00024+C7FF04+C7FF05)"
reported = 31.05

[[record]]
molecule = "O=C(OCc1ccc([N+](=O)[O-])cc1)C(Cc1ccccc1)NCc1ccc(Cl)cc1Cl (stereo not given)"
assay_target = "Mushroom tyrosinase (Agaricus bisporus, UniProt O42713+Q00024+C7FF04+C7FF05)"
reported = 6.78

[[record]]
molecule = "O=C(OCc1cc(=O)c(O)co1)C(Cc1ccccc1)NCc1ccc(Br)cc1 (stereo not given)"
assay_target = "Mushroom tyrosinase (Agaricus bisporus, UniProt O42713+Q00024+C7FF04+C7FF05)"
reported = 15.26


Check the records and state IC50 for O=c1cc(CCl)occ1O
33.05

Check the records and state IC50 for O=C(OCc1ccc(F)cc1)C(Cc1ccccc1)NCc1ccc(Br)cc1 (stereo not given)
16.07

Check the records and state IC50 for O=C(OCc1ccc([N+](=O)[O-])cc1)C(Cc1ccccc1)NCc1ccc([N+](=O)[O-])cc1 (stereo not given)
10.58

Check the records and state IC50 for O=C(OCc1ccc(F)cc1)C(Cc1ccccc1)NCc1ccc(Cl)cc1Cl (stereo not given)
8.33

Check the records and state IC50 for O=C(OCc1cc(=O)c(O)co1)C(Cc1ccccc1)NCc1ccc(Cl)c([N+](=O)[O-])c1 (stereo not given)
11.65

Check the records and state IC50 for O=C(OCc1cc(=O)c(O)co1)C(Cc1ccccc1)NCc1ccccc1Cl (stereo not given)
20.64

Check the records and state IC50 for O=C(OCc1ccc(F)cc1)C(Cc1ccccc1)NCc1ccc(Cl)c([N+](=O)[O-])c1 (stereo not given)
6.11

----------
- Assay target: Mushroom tyrosinase (Agaricus bisporus, UniProt O42713+Q00024+C7FF04+C7FF05)
- Assay notes: Inhibition of mushroom tyrosinase using L-DOPA as substrate assessed as reduction in diphenolase activity
- Assay type: protein assay
Measurement name: IC50 (µM)
All answers are understood in µM, so give the number only.

Sample answers from the record:
[[record]]
molecule = "O=C(OCc1ccc([N+](=O)[O-])cc1)C(Cc1ccccc1)NCc1ccc(Cl)c([N+](=O)[O-])c1 (configuration not stated)"
measurement_name = "IC50"
endpoint_unit = "µM"
reported = 4.86

[[record]]
molecule = "O=C(OCc1ccc(F)cc1)C(Cc1ccccc1)NCc1ccc([N+](=O)[O-])cc1 (configuration not stated)"
measurement_name = "IC50"
endpoint_unit = "µM"
reported = 11.77

[[record]]
molecule = "O=C(OCc1ccc([N+](=O)[O-])cc1)C(Cc1ccccc1)NCc1ccc(Br)cc1 (configuration not stated)"
measurement_name = "IC50"
endpoint_unit = "µM"
reported = 11.95


Check the records and state IC50 for CC(C)C(=O)Nc1nc(-c2ccc(O)cc2O)cs1
48.12

Check the records and state IC50 for O=C(OCc1cc(=O)c(O)co1)C(Cc1ccccc1)NCc1ccc([N+](=O)[O-])cc1 (configuration not stated)
13.43
